Kindly supply the reported koff values for the records listed here.
- TARGET OF ASSAY: T1, recombinant human ErbB2/Fc chimera (human, UniProt P04626 23-652)
- T1 construct: bought from R&D Systems; also called rhErbB2-Fc; rhErb2-Fc; Fc part of the bought chimera not given; not described
- RUN DESCRIPTION: SPR (Biacore 3000), purified Nanobody over immobilised rhErbB2-Fc

Please review the entries below; each comes with its answer.
{"BINDER": "27E7-35GS-2D3 (bispecific antibody, biparatopic Nanobody; C-term myc-His6 tag) EVQLVESGGGLVQAGGSLRLSCAASGITFRRYDMGWYRQFPGKERELVATILSEGDTNYVDPVKGRFTISRDNAKNTVYLQMNDLKPEDTAVYYCNGVWRAIGRTYWGQGTQVTVSSGGGGSGGGGSGGGGSGGGGSGGGGSGGGGSGGGGSEVQLVESGGSLVQPGGSLRLSCAASGFTFDDYAMSWVRQVPGKGLEWVSSINWSGTHTDYADSVKGRFTISRNNANNTLYLQMNSLKSEDTAVYYCAKNWRDAGTTWFEKSGSAGQGTQVTVSS", "koff": "~0.0001 s⁻¹"}
{"BINDER": "27C3-35GS-2D3 (bispecific antibody, biparatopic Nanobody; C-term myc-His6 tag) EVQLVESGGGLVQPGGSLRLSCAASGFTFDDYATSWVRQAPGKGPEWVSAINSGGGSTYYADSVKGRFTISRDNAKNTLYLQMNSLKPEDTAVYYCARPRGSSLYLLEYDYWGQGTQVTVSSGGGGSGGGGSGGGGSGGGGSGGGGSGGGGSGGGGSEVQLVESGGSLVQPGGSLRLSCAASGFTFDDYAMSWVRQVPGKGLEWVSSINWSGTHTDYADSVKGRFTISRNNANNTLYLQMNSLKSEDTAVYYCAKNWRDAGTTWFEKSGSAGQGTQVTVSS", "koff": "~0.001 s⁻¹"}
{"BINDER": "27A3-35GS-2D3 (bispecific antibody, biparatopic Nanobody; C-term myc-His6 tag) EVQLVESGGGLVQAGGSLSLSCVASGRFFSTRVMAWYRQTPGKQREFVASMRGSGSTNYADSVRGRFAISRDNAKNTVYLQMNTLKPEDTAVYYCRDINEDQWGQGTQVTVSSGGGGSGGGGSGGGGSGGGGSGGGGSGGGGSGGGGSEVQLVESGGSLVQPGGSLRLSCAASGFTFDDYAMSWVRQVPGKGLEWVSSINWSGTHTDYADSVKGRFTISRNNANNTLYLQMNSLKSEDTAVYYCAKNWRDAGTTWFEKSGSAGQGTQVTVSS", "koff": "~0.0001 s⁻¹"}
{"BINDER": "2D3-35GS-2D3 (VHH, bivalent 2D3, 35GS linker; C-term myc-His6 tag) EVQLVESGGSLVQPGGSLRLSCAASGFTFDDYAMSWVRQVPGKGLEWVSSINWSGTHTDYADSVKGRFTISRNNANNTLYLQMNSLKSEDTAVYYCAKNWRDAGTTWFEKSGSAGQGTQVTVSSGGGGSGGGGSGGGGSGGGGSGGGGSGGGGSGGGGSEVQLVESGGSLVQPGGSLRLSCAASGFTFDDYAMSWVRQVPGKGLEWVSSINWSGTHTDYADSVKGRFTISRNNANNTLYLQMNSLKSEDTAVYYCAKNWRDAGTTWFEKSGSAGQGTQVTVSS", "koff": "~0.0001 s⁻¹"}
{"BINDER": "2D3 (VHH, C-term myc-His6 tag; also called NB-2D3; Nb-2D3) VHH: EVQLVESGGSLVQPGGSLRLSCAASGFTFDDYAMSWVRQVPGKGLEWVSSINWSGTHTDYADSVKGRFTISRNNANNTLYLQMNSLKSEDTAVYYCAKNWRDAGTTWFEKSGSAGQGTQVTVSS", "koff": "~0.001 s⁻¹"}

Go through the items and report each one's koff.
1. 27H5-35GS-2D3 (bispecific antibody, biparatopic Nanobody; C-term myc-His6 tag) EVQLVESGGGLVQAGGSLRLSCAASGFTFDDYGIGWFRQASGKEREGVSCITSSDGSTYYADSVKGRFTISSDNAKNTVYLQMNSLKPEDTAVYYCAALPFVCPSGSYSDYGDEYDYWGQGTQVTVSSGGGGSGGGGSGGGGSGGGGSGGGGSGGGGSGGGGSEVQLVESGGSLVQPGGSLRLSCAASGFTFDDYAMSWVRQVPGKGLEWVSSINWSGTHTDYADSVKGRFTISRNNANNTLYLQMNSLKSEDTAVYYCAKNWRDAGTTWFEKSGSAGQGTQVTVSS
2. 27D1-35GS-2D3 (bispecific antibody, biparatopic Nanobody; C-term myc-His6 tag) EVQLVESGGGLVQPGGSLRLSCVASGFSLDDYGMTWVRQAPGKGLEWVSSINWSGTHTDYADSVKGRFTISRDNAKNTLFLQMNSLTPEDTAVYYCNQGWKILPAERRGHGTQVTVSSGGGGSGGGGSGGGGSGGGGSGGGGSGGGGSGGGGSEVQLVESGGSLVQPGGSLRLSCAASGFTFDDYAMSWVRQVPGKGLEWVSSINWSGTHTDYADSVKGRFTISRNNANNTLYLQMNSLKSEDTAVYYCAKNWRDAGTTWFEKSGSAGQGTQVTVSS

~0.001 s⁻¹
~0.0001 s⁻¹
